# TARGET_OF_ASSAY: T1, recombinant human EGFR extracellular domain with 6xHis (human, UniProt P00533 25-645)
# T1 construct: In-house produced; also called 6xHis EGFR ECD; soluble human EGFR ECD; not shown: 6xHis tag
# ASSAY_COMMENT: SPR (BIAcore 2000); IgG captured on anti-human Fc, soluble monovalent EGFR ECD injected
Threshold 0.02 µM. Kd below it: rule met. Kd at it or above: rule not met.

| BINDER | CLASS_LABEL |
| --- | --- |
| antibody 1261 (antibody, human IgG1, kappa, V domains shown, Chimeric IgG1 kappa) VH: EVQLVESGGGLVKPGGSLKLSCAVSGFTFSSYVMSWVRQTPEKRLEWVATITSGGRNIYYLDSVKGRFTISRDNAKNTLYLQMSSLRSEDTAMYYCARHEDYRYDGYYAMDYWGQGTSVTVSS VL: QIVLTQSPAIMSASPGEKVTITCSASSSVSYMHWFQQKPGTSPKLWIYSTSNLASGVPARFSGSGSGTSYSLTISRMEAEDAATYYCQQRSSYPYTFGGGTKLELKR | rule met |
| antibody 1030 (antibody, human IgG1, kappa, V domains shown, Chimeric IgG1 kappa) VH: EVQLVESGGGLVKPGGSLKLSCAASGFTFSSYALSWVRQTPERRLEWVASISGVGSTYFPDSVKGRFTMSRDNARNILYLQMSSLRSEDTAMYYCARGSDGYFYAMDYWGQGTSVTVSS VL: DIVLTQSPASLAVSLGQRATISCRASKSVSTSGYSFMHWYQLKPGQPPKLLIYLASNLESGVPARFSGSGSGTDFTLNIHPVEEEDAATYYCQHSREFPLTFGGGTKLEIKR | rule not met |
| antibody 1254 (antibody, human IgG1, kappa, V domains shown, Chimeric IgG1 kappa; also called mAb 1254) VH: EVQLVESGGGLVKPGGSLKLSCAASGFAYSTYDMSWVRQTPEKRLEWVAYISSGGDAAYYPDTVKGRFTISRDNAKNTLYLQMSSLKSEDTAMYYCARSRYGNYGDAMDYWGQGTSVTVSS VL: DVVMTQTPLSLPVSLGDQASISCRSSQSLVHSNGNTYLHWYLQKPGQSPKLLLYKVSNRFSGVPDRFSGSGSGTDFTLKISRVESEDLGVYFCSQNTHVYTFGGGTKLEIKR | rule met |
| antibody 1284 (antibody, human IgG1, kappa, V domains shown, Chimeric IgG1 kappa) VH: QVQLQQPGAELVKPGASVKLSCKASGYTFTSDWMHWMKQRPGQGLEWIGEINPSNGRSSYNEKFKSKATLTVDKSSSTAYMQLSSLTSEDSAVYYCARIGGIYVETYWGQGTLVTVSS VL: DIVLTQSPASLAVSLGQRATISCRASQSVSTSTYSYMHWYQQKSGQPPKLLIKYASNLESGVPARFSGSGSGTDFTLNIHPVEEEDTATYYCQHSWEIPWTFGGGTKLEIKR | rule met |
| antibody 1024 (antibody, human IgG1, kappa, V domains shown, Chimeric IgG1 kappa) VH: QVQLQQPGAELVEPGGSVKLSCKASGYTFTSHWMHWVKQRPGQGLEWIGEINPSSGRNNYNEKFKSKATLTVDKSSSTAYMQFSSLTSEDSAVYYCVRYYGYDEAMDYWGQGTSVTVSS VL: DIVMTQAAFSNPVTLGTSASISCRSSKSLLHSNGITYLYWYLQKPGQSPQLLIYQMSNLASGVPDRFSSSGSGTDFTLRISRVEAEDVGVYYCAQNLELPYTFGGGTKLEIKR | rule not met |
| antibody 1260 (antibody, human IgG1, kappa, V domains shown, Chimeric IgG1 kappa) VH: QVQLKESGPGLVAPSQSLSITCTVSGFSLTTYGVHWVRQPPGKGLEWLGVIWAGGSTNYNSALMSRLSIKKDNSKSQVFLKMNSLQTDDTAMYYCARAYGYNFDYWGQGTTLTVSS VL: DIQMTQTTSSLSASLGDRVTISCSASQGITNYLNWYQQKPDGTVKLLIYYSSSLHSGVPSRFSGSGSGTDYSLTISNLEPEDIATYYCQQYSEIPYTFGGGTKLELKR | rule met |
| antibody 1320 (antibody, human IgG1, kappa, V domains shown, Chimeric IgG1 kappa) VH: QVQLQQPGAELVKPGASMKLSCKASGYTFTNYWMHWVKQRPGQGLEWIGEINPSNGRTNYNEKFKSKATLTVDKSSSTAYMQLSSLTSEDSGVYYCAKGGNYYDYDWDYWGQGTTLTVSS VL: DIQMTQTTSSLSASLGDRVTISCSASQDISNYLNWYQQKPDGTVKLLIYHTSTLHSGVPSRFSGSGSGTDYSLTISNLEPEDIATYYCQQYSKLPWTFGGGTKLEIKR | rule not met |
| antibody 1347 (antibody, human IgG1, kappa, V domains shown, Chimeric IgG1 kappa) VH: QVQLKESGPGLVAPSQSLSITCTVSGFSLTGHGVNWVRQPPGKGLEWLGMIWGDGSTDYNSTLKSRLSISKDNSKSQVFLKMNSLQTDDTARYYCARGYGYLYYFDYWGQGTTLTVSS VL: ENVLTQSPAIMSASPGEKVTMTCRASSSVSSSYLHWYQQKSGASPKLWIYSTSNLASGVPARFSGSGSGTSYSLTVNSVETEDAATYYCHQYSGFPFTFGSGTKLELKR | rule not met |
